test: solvent given as SMILES
recordedConditions: in O
outcomeMeasure: solvation free energy, 298 K (kcal/mol)
Answer in kcal/mol, number only, no unit symbol.

In [3]: df
Out[3]:
                                   compound  recordedmeasurement
0                             CCCCCCCCCCCCC                 4.12
1                                C=C(C)CCCC                 1.66
2      CCCCCC(=O)c1c(C)[nH]n(-c2ccccc2)c1=O                -9.26
3  c1ccc2c(c1)OCCOCCOCCOc1ccccc1OCCOCCOCCO2                -23.6
4                    c1ccc2c(c1)ccc1ccccc12                 -3.8
5                                      CCCC                 2.07
6                                  C1CNCCN1                 -7.4
7                        COC(=O)c1ccc(I)cc1                -5.09
8                              CN1CCN(C)CC1                -7.58
9                         C1COCCOCCOCCOCCO1                -12.8

Consider now this further compound.
Would you kindly share the measured solvation free energy, 298 K for C1COCCOCCOCCOCCOC1 ?
-12.5

----------
test: solvent given as SMILES
recordedConditions: in CCCCOC(C)=O
Recorded solvation free energy, 298 K values for a group of compounds are listed next.
Reply with just the number (in kcal/mol).

Below, each entry is followed by its recorded solvation free energy, 298 K result.
>>> print(df.to_string())
         molecularstring  recordedmeasurement
0      O=C(O)c1ccc(O)cc1                -10.8
1  C(=Cc1ccccc1)c1ccccc1                -11.2

Here is the next item to consider.
Sample COc1ccccc1C(=O)O — what was its solvation free energy, 298 K?
-10.8

----------
test: solvent given as SMILES
recordedConditions: in NC=O
# if measured solvation free energy, 298 K < -5 kcal/mol: class 1  # else: class 0

Some entries whose results are on file:
   molecularstring    label
0       CCC1CCCCC1  class 0
1         C1COCCO1  class 0
2        CCCC(C)=O  class 0
3              CCC  class 0
4        CCCCCCCCO  class 1

Field: below-cutoff. Rule: recorded solvation free energy, 298 K strictly less than -5 kcal/mol. Subject: CCCc1ccccc1
class 0

Input CCCOC(C)=O ; condition: solvation free energy, 298 K strictly below -5 kcal/mol. Does it hold?
class 0

For this molecule, is solvation free energy, 298 K lower than -5 kcal/mol? CCCC1CCCCC1
class 0

Field: below-cutoff. Rule: recorded solvation free energy, 298 K strictly less than -5 kcal/mol. Subject: O
class 1

solvation free energy, 298 K strictly < -5 kcal/mol for this molecule? CC(=O)CCC(C)C
class 0

----------
Overview of reported solvation free energy, 298 K across a group of compounds:
test: solvent given as SMILES
recordedConditions: in C1CCC(C2CCCCC2)CC1
All answers are understood in kcal/mol, so give the number only.

In [3]: df
Out[3]:
   molecularstring                outcomemeasure  recordedmeasurement
0          C#CCCCC  solvation free energy, 298 K                -3.65

Endpoint output: solvation free energy, 298 K of C=CCCCC . Value?
-3.65

Recorded solvation free energy, 298 K for C1=CCCC=C1 , please?
-4.06

solvation free energy, 298 K for C1=CCC=CC1 ?
-4.34

----------
test: solvent given as SMILES
recordedConditions: in CCC(C)=O
outcomeMeasure: solvation free energy, 298 K (kcal/mol)
Quick note: give the figure in kcal/mol, leave out the unit.

For orientation, consider the following solved cases.
>>> print(df.to_string())
       molecularstring                outcomemeasure  recordedmeasurement
0  FC(F)(Cl)C(F)(Cl)Cl  solvation free energy, 298 K                -3.36
1           CCCCCCCCCC  solvation free energy, 298 K                -6.01
2                 CCCC  solvation free energy, 298 K                -2.31
3                 [HH]  solvation free energy, 298 K                 1.45
4            ClC(Cl)Cl  solvation free energy, 298 K                -4.72

Name the recorded solvation free energy, 298 K for CCN(CC)CC .
-4.16

Could you tell me which solvation free energy, 298 K is on file for CCOC=O ?
-3.71

Sample C(=Cc1ccccc1)c1ccccc1 — what was its solvation free energy, 298 K?
-11.5

What does the record list as solvation free energy, 298 K for CCCCCCCCCCCCCCCCO ?
-13.8

Please give the measured solvation free energy, 298 K for this compound: N
-1.94

Entry O=C(O)c1ccccc1O has what solvation free energy, 298 K?
-10.4

Recorded solvation free energy, 298 K of c1ccc2c(c1)CCCC2 , please.
-7.43

// query solvation free energy, 298 K value for entry C1COCCO1
-5.01

Entry O has what solvation free energy, 298 K?
-4.02

Record request: solvation free energy, 298 K value, item C1=CCC=CC1
-4.41

----------
test: solvent given as SMILES
recordedConditions: in CN(C)C=O
solvation free energy, 298 K overview
Reply with just the number (in kcal/mol).

Here is how some compounds turned out for solvation free energy, 298 K.
>>> df
                 molecularstring  recordedmeasurement
0                       C1COCCO1                -5.06
1  COC(=O)c1cccc([N+](=O)[O-])c1                -10.8

Quick check: solvation free energy, 298 K of O=C(O)c1ccccc1O ?
-10.9

----------
test: solvent given as SMILES
recordedConditions: in CCCCO
Reported solvation free energy, 298 K values for the following compounds.
Dear colleague, please return just the value in kcal/mol, with no unit written.

Worked cases, solvation free energy, 298 K given:
>>> print(df.to_string())
                molecularstring                outcomemeasure  recordedmeasurement
0                           CCC  solvation free energy, 298 K                -1.35
1  CCCCCCCCCCCCCCCCCCCCCCCCCCCC  solvation free energy, 298 K                -16.7

Quick check: solvation free energy, 298 K of c1ccc2c(c1)Cc1ccccc1-2 ?
-9.15

I would be grateful if you could share the reported solvation free energy, 298 K for CCC#N .
-4.01

----------
Each entry below carries its reported solvation free energy, 298 K.
test: solvent given as SMILES
recordedConditions: in O
Give a bare numeral; the unit kcal/mol is implied.

Recorded results for 5 compounds are shown here.
                                   compound                outcomemeasure  unitsymbol  recordedmeasurement
0                                 O=C1CCCC1  solvation free energy, 298 K    kcal/mol                -4.72
1        CCC1CO1 (configuration not stated)  solvation free energy, 298 K    kcal/mol                -2.93
2                        Cc1ccc2cc(C)ccc2c1  solvation free energy, 298 K    kcal/mol                -2.37
3               CCCCCCCCCCCCCCCCCCCCCCCCCCC  solvation free energy, 298 K    kcal/mol                 5.74
4  CC1CCC(C(C)C)C(=O)C1 (configuration not stated)  solvation free energy, 298 K    kcal/mol                -2.53

Which value of solvation free energy, 298 K has been reported for O=C(O)c1ccc(O)cc1 in the records?
-9.25

----------
test: solvent given as SMILES
recordedConditions: in CCC(C)O
outcomeMeasure: solvation free energy, 298 K

Consider the following illustrative entries.
In [3]: df
Out[3]:
           compound  recordedmeasurement
0            CCCCCl       -3.72 kcal/mol
1  COc1ccccc1C(=O)O         -11 kcal/mol
2            CCCCBr       -4.19 kcal/mol

Returns the measured solvation free energy, 298 K for the input compound. Input: COc1ccc2cc(C(C)C(=O)O)ccc2c1 (stereo not given)
-16.6 kcal/mol

Reported solvation free energy, 298 K, compound O=C(O)c1ccccc1 : ____
-9.41 kcal/mol

Looking for the measured solvation free energy, 298 K of Cc1cccc(C(=O)O)c1 , can you help?
-10.1 kcal/mol

For the compound shown here, c1ccc2c(c1)ccc1ccccc12 , give the reported solvation free energy, 298 K.
-9.64 kcal/mol

Quick one: solvation free energy, 298 K of CCN(CC)CC ?
-4.82 kcal/mol

Give its solvation free energy, 298 K value. Item: CCCl
-2.41 kcal/mol

So what does the record say about solvation free energy, 298 K for O=C(O)c1ccccc1O ?
-10.3 kcal/mol
